Exercise: state measured melting point for each of the compounds provided.

Example cases with answers are listed next.
CCOP(=O)(CNC(Cc1ccc(Cl)cc1)c1cc(C(C)(C)C)c(O)c(C(C)(C)C)c1)OCC (configuration not stated)    120 to 121 °C
Cc1c(NC(=O)c2ccc(-c3ccccc3Cl)cc2)ccc2cc(CN3CCCC3)cnc12    128 to 129 °C
COc1cn(-c2cc(F)c(Br)cc2F)nc(-c2ccnn2-c2ccccc2)c1=O    211 to 213 °C
COc1ccc(CN2C(=O)C(N)C(=O)N(CC34CC5CC(CC(C5)C3)C4)c3ccccc32)cc1 (configuration not stated)    223 to 225 °C
COc1cc(-c2nc(-n3c(C)ccc3C)sc2SCC2CCCC2)c(OC)cc1C    108 °C

Give measured melting point for every item shown.
1. CS(=O)(=O)NC(=O)N1CC1C#N (configuration not stated)
2. Cc1oc(-c2ccccc2)nc1CCOc1ccc(CC(C(=O)O)c2nc(-c3ccccc3)oc2C)cc1 (configuration not stated)
3. CCN(C=O)Cc1ccc(NCCN(CC)CC)c2c(=O)c3ccccc3sc12
4. CSc1nc(CC2CCN(c3ccccc3)CC2)nc(C(=O)NCC(=O)O)c1O
5. CC(=O)Oc1cc2c(cc1C(C)(C)CC(C)(C)C)OC(C)(COc1ccc([N+](=O)[O-])cc1)CC2=O (configuration not stated)
6. CCOC(C)O[C@@H](C(=O)OC(=O)[C@H](OC(C)OCC)[C@@H](NC(=O)OC(C)(C)C)c1ccccc1)[C@@H](NC(=O)OC(C)(C)C)c1ccccc1 (some centres not stated)
7. O=C(NCc1cccs1)[C@@H]1CCCN(c2cccc3c2C(=O)N(Cc2ccncc2)C3=O)C1

1: 110 to 112 °C; 2: 120 °C; 3: 75 to 77 °C; 4: 156 to 157 °C; 5: 166 to 167 °C; 6: 43 °C; 7: 193 to 194 °C

* * *

endpoint: melting point

Example cases with answers are listed next.
COc1nc2cc(F)cc(CN=[N+]=[N-])c2nc1OC    75 to 78 °C
CCN(SCc1nccs1)C(=C[N+](=O)[O-])SC    63 to 64 °C
O=C(O)c1cc(NCCCc2ccc([N+](=O)[O-])cc2)ccc1O    229 to 231 °C
CC(C)CSc1nc2c(cc1C#N)C(=O)CC(C)(C)C2    75 to 76 °C
COc1cc(OCc2ccccn2)ccc1/C=C/c1cc(/C=C/c2ccc3[nH]ccc3c2)n[nH]1    98 to 104 °C
Clc1cc(Nc2ccccc2)c2nc[nH]c2n1    > 300 °C
CC(C)(C)OC(=O)N1CCN(c2ccc(N)cc2)CC1    95 to 96 °C
CCC(CC)Nc1c([N+](=O)[O-])cc(C)c(C=CN(C)C)c1[N+](=O)[O-]    100 to 102 °C
COc1cc2c(cc1OC)NC(=O)N(CCCN(C)CCCSc1ccccc1)CC2    107 to 110 °C
Cc1ccc(-c2nc3cc([N+](=O)[O-])ccc3o2)s1    163 to 165 °C

Give measured melting point for every item shown.
1. COc1ccc2c(c1OC)CCC2=O
2. O=C(C=Cc1ccc(Oc2ccccc2)cc1)c1ccc(F)cc1
3. CC(C)(Oc1ccc(C#N)cc1)C(O)Cc1ccncn1 (stereo not drawn)

73 to 74 °C
116 °C
96 to 98 °C

Give measured melting point for every item shown.
1. Nc1nc(=O)n(CCCCI)cc1F
2. NC(=O)C1CCCC(C(=O)O)C1 (stereo not drawn)
3. CN(C)C(=O)Nc1c(C(=O)c2occc2CO)[nH]c2cc(Cl)ccc12
4. OCCCCCCCCCCCCCCCCNCCO
5. CC(C)(C)OC(=O)CN(CCO)C(=O)c1cc([N+](=O)[O-])ccc1F
6. O=C(O)COc1c(-c2ccccc2)cc([N+](=O)[O-])cc1-c1ccccc1
7. CC(C)N(C(=O)CBr)C(C)C
8. CCC(CC)c1ccc(Cl)c2nc3n(c12)CCN3C(=O)c1ccc(Cl)nc1

1: 181 to 184 °C; 2: 102 to 128 °C; 3: 238 °C; 4: 80 to 81.2 °C; 5: 116 to 118 °C; 6: 154 to 156 °C; 7: 64 to 65.5 °C; 8: 205 to 207 °C

Give measured melting point for every item shown.
1. Clc1ncnc2c1ncn2C1CCCCO1 (stereo not drawn)
2. Cc1cnc2c(c1C)CCCC2C(N)=S (stereo not drawn)

70 to 71 °C
163 to 165 °C

* * *

Exercise: state measured melting point for each of the compounds provided.

Give measured melting point for every item shown.
1. CCC(=O)N1Cc2cnn(C)c2-c2cc(Cl)ccc21
2. CCCc1ccnc(C(N)=O)c1N
3. Cc1nc(-c2ccc(Cl)cc2)[nH]c1C(=O)N[C@H](C)[C@](O)(Cn1cncn1)c1ccc(F)cc1F

1. 127 to 128 °C
2. 139 to 141 °C
3. 165 to 166 °C

* * *

Exercise: state measured melting point for each of the molecules provided.

Example cases with answers are listed next.
CSCC(=O)[C@H](Cc1ccc(O)cc1)NC(=O)[C@H](CC(C)C)NC(=O)OCc1ccccc1    108 to 111 °C
O=C(NC1=NCCC1)Nc1ccc(Br)cc1    221 to 224 °C
CCCCn1c(C(=O)c2cc(C)cc(C=CC#N)c2)c(C(C)C)c(=O)[nH]c1=O    164 to 165 °C

Give measured melting point for every item shown.
1. CC(C)(C)C(=O)Nc1cc2c(O)nc[nH]c-2n1
2. O=C(Nc1ccc(F)cc1F)c1cccc(Oc2cccc(Cl)c2)n1

["295 °C", "116 to 117 °C"]

Give measured melting point for every item shown.
1. CCNc1nc2cccc(C(=O)OC)c2n1Cc1ccc(-c2ccccc2-c2nnn[nH]2)cc1
2. CCOC(=O)c1cc(Br)cc2c(=O)cc(-c3cccc(OCc4nc5ccccc5s4)c3)oc12
3. CCSc1cnc(OCCOc2ncnc(NS(=O)(=O)c3ccc(C(C)(C)C)cc3)c2-c2ccc(C)cc2)nc1
4. Nc1noc(C23CCCN(CC2)C3)n1 (stereo unspecified)
5. c1ccc2c(c1)-c1ccccc1C2Cc1nc(COc2ccc(CCCn3ccnc3)cc2)co1
6. Oc1cccc2c(Cl)ccnc12
7. COc1ccc2c(c1)N(C)C(=O)N(c1ccc(Cl)cc1)S2(=O)=O

1. 256 to 258 °C
2. 250 to 251 °C
3. 177 to 178 °C
4. 197 to 199 °C
5. 145 to 146 °C
6. 143 to 145 °C
7. 167 to 168 °C

* * *

endpoint: melting point

Example cases with answers are listed next.
Cn1nnnc1C(C=CC=O)=C(c1ccc(F)cc1)c1ccc(F)cc1    156 to 158 °C
NC(=O)COCc1nnc(S)s1    216 to 217 °C
COC(=O)c1cccn1-c1cc2[nH]c(=O)c(=O)[nH]c2cc1Cl    > 260 °C

Give measured melting point for every item shown.
1. COc1cc(C2C3=C(COC3=O)Nc3ccc4cc(C)[nH]c4c32)cc(OC)c1OC (stereo unspecified)
2. COC(=O)C1=C(C)Nc2ccccc2SC1c1cccc(Cl)c1Cl (stereo unspecified)

1. 280 to 281 °C
2. 190 to 191 °C

* * *

Exercise: state measured melting point for each of the compounds provided.

Example cases with answers are listed next.
CC(=NO)c1c(C#N)nn(-c2c(Cl)cc(C(F)(F)F)cc2Cl)c1N    105 to 110 °C
Cc1ccc(-c2ccc3c(c2)C=C(C(=O)Nc2ccc(CNCC4CCCCC4)cc2)CCO3)cc1    154 to 155 °C
CC(C)CC(=O)Nc1cccc(-c2ccnc3c(-c4cccc5cccnc45)cnn23)c1    96 to 99 °C

Give measured melting point for every item shown.
1. CCOC(=O)/C=C/c1ccc(Cl)nn1
2. CCOC(=O)Cn1c(=O)c(=O)[nH]c2cc(C(F)(F)F)c(-n3ccc(C=O)c3)cc21
3. CCOC(=O)CC1=CC2C(CCC3(C)C(O)CCC23)c2ccc(O)cc21 (stereo not given)
4. C=CC(=O)OCCCCCCOc1ccc(C(=O)OCCOCC2(c3ccccc3)C=CC=CC2C=Cc2ccc(OCCCCCC)cc2)cc1 (stereo not given)
5. Cc1nnc2n1-c1ccc(C#CCn3cnc4ccccc43)cc1C(c1ccccc1Cl)=NC2
6. COc1cc(C2CCN(C)CC2)ccc1Nc1ncc2ccc(-c3ccccc3OC)n2n1
7. CC(=O)SCC(CC#N)C(=O)O (stereo not given)

106 to 110 °C
236 to 237 °C
178 °C
87 °C
165 to 168 °C
71 to 84 °C
110 to 112 °C

* * *

Exercise: state measured melting point for each of the compounds provided.

Example cases with answers are listed next.
CCOC(=O)CN(CC(=O)OCC)c1ccc(C=O)c(O)c1    190 °C
O=C(O)CCNC(=O)[C@H](Cc1ccccc1)OP(=O)(O)CCCCc1ccccc1    78.5 to 80 °C
O=C1Nc2ccc(I)cc2C1=NNC(=O)c1ccc(Oc2ccccc2)cc1    296 °C
COc1cc(N2CCOCC2)ccc1Nc1nc(Nc2ccc(OC)c3c2N(C)C(=O)CCC3)ncc1Cl    230 to 232 °C
Cc1ccc(C(=O)Nc2ccc(N3CCCC3)c(C(F)(F)F)c2)cc1Nc1nccc(-c2cccnc2)n1    129 to 130 °C
OCc1cccc(Nc2nc(Oc3ccccc3)nc(Oc3ccc(Cl)cc3)n2)c1    110 to 114 °C
CCOC(=O)C1(NS(=O)(=O)c2ccc3c(Cl)cnc(NC(=N)N)c3c2)CCCC1    225 to 226 °C
CSc1nn2c(Cl)cc(CN3CCN(C)CC3)nc2c1S(=O)(=O)c1ccccc1    113 to 116 °C

Name the reported melting point value associated with the compound CN1C(=O)CC[C@]2(C)c3ccc(Sc4ccc(-c5ccccc5)nn4)cc3CC[C@@H]12
199 to 200 °C
